Every entry's value here was drawn from patent US20130071496A1.

Give SOLUBILITY AT ROOM TEMPERATURE (22-24° C.), pH 7.5 for every item shown.
- cond: pH 7.5
// return numeric value only (unit: Mg/L, not printed)

SOLUBILITY AT ROOM TEMPERATURE (22-24° C.), pH 7.5 measured on CC(=O)C(=O)O [Pyruvate, strontium pyruvate] = 1946

SOLUBILITY AT ROOM TEMPERATURE (22-24° C.), pH 7.5 measured on O=C([O-])/C=C/C(=O)[O-].[Sr+2] [Fumerate, strontium fumarate] = 1215

SOLUBILITY AT ROOM TEMPERATURE (22-24° C.), pH 7.5 measured on O=C([O-])/C=C\C(=O)[O-].[Sr+2] [Maleate, strontium maleate] = 1680

SOLUBILITY AT ROOM TEMPERATURE (22-24° C.), pH 7.5 measured on N#Cc1c(N(CC(=O)[O-])CC(=O)[O-])sc(C(=O)[O-])c1CC(=O)[O-].[Sr+2].[Sr+2] [Ranelate, reference compound] = 890
